system: SNB-75; test: NCI tumour cell line growth inhibition, 48 h
Calls of active or inactive are those of the source. No stated cut-off is given here; in the data, active = GI50 up to about 1.1 µM and inactive = higher.
Reported property: GI50

### Prompt What value of measured GI50 is listed for CC(=O)Nc1ccc(/C=N\N2C(=O)c3ccccc3C2=O)cc1 ?
### Response > 100 µM (inactive)

Further cases:
### Prompt What value of measured GI50 is listed for COCCOCOc1ccc(OCOCCOC)c2c1C(=O)c1ccccc1C2=O ?
### Response 99.3 µM (inactive)

### Prompt What value of measured GI50 is listed for C#CCN(Cc1ccc2nc(OC)c(OC)nc2c1)c1cc(OC)c(OC)c(OC)c1 ?
### Response 33.7 µM (inactive)

### Prompt What value of measured GI50 is listed for CCOC(=O)c1cn(-c2ccccc2)c(=S)n2c1nc1ccccc12 ?
### Response > 71.6 µM (inactive)

### Prompt What value of measured GI50 is listed for CC1=NOC2(C1)C(=O)Nc1ccccc12 (centres undefined) ?
### Response 66.2 µM (inactive)

### Prompt What value of measured GI50 is listed for N#CCSc1c(-c2ccccc2)c(=O)n(-c2ccccc2)c(=S)n1-c1ccccc1 ?
### Response 20.1 µM (inactive)

### Prompt What value of measured GI50 is listed for CCOC(=O)[C@@H]1OC(c2ccccc2)O[C@H]1C(=O)OCC ?
### Response > 100 µM (inactive)

### Prompt What value of measured GI50 is listed for CCC(C)c1cnc(CC(C)C)c(=O)[nH]1 (centres undefined) ?
### Response > 100 µM (inactive)

### Prompt What value of measured GI50 is listed for COC(=O)C1(O)C(c2ccccc2)NC2(C)CCCC21 (centres undefined) ?
### Response > 100 µM (inactive)

### Prompt What value of measured GI50 is listed for N#CC1=C(O)NC(O)=C(C#N)C1c1c(Cl)cccc1Cl ?
### Response 11.7 µM (inactive)

### Prompt What value of measured GI50 is listed for OC(O)(C(F)(F)F)C(F)(F)F ?
### Response > 100 µM (inactive)

### Prompt What value of measured GI50 is listed for COc1ccc2[nH]c3c(C)c4ccncc4c(C)c3c2c1 ?
### Response 1.17 µM (inactive)

### Prompt What value of measured GI50 is listed for N#CCCC(CCC#N)(CCC#N)NO ?
### Response 73.8 µM (inactive)

### Prompt What value of measured GI50 is listed for COc1cc2c(=O)cnoc2cc1O ?
### Response > 100 µM (inactive)

### Prompt What value of measured GI50 is listed for N#Cc1ccc(C2SCc3nc4ccccc4n32)cc1 (centres undefined) ?
### Response 38.5 µM (inactive)

### Prompt What value of measured GI50 is listed for Cc1[nH]c(-c2ccccc2)c(-c2ccc(Cl)cc2)c1C(=O)ONC(=O)c1ccccc1 ?
### Response 3.56 µM (inactive)

### Prompt What value of measured GI50 is listed for Clc1ccc2nc3c(c(-c4ccccc4)nn3-c3ccccc3)c(-c3ccccc3)c2c1 ?
### Response > 100 µM (inactive)

### Prompt What value of measured GI50 is listed for COc1cccc(/C=N/NC(N)=O)c1O ?
### Response > 100 µM (inactive)

### Prompt What value of measured GI50 is listed for CCOc1cc(-c2nc3ccccn3c2/N=C/c2cc([N+](=O)[O-])cc([N+](=O)[O-])c2O)ccc1O ?
### Response 88.1 µM (inactive)

Attribution: ChEMBL document CHEMBL1201862
